Value source: ChEMBL document CHEMBL1158335

Tested on: Escherichia coli
Assay: Antibacterial activity against Escherichia coli ATCC 25922 at 500 ug/ml after 24 hrs
Type: functional, organism-based
Activity calls are given as the source filed them. The rule behind the calls is not given here.
Labels: active, inactive

{"COMPOUND": "COc1ccc(C2C(Cl)C(=O)N2c2nnc(Cn3c(C)nc4ccccc43)s2)cc1 (stereo not given)", "QUALITATIVE_LABEL": "active"}
{"COMPOUND": "Cc1ccccc1/C=N/c1nnc(Cn2c(C)nc3ccccc32)s1", "QUALITATIVE_LABEL": "active"}
{"COMPOUND": "Cc1nc2ccccc2n1Cc1nnc(N2C(=O)C(Cl)C2c2ccc(O)cc2)s1 (stereo not given)", "QUALITATIVE_LABEL": "active"}
{"COMPOUND": "Cc1cccc(C2C(Cl)C(=O)N2c2nnc(Cn3c(C)nc4ccccc43)s2)c1 (stereo not given)", "QUALITATIVE_LABEL": "inactive"}
{"COMPOUND": "Cc1ccc(C2C(Cl)C(=O)N2c2nnc(Cn3c(C)nc4ccccc43)s2)cc1 (stereo not given)", "QUALITATIVE_LABEL": "active"}
{"COMPOUND": "Cc1nc2ccccc2n1Cc1nnc(N2C(=O)C(Cl)C2c2ccccc2Cl)s1 (stereo not given)", "QUALITATIVE_LABEL": "active"}
{"COMPOUND": "Cc1nc2ccccc2n1Cc1nnc(/N=C/c2ccc(Cl)cc2)s1", "QUALITATIVE_LABEL": "inactive"}
{"COMPOUND": "Cc1nc2ccccc2n1Cc1nnc(/N=C/c2ccc(N)cc2)s1", "QUALITATIVE_LABEL": "active"}
{"COMPOUND": "Cc1nc2ccccc2n1Cc1nnc(N2C(=O)C(Cl)C2c2ccc(N)cc2)s1 (stereo not given)", "QUALITATIVE_LABEL": "active"}
{"COMPOUND": "Cc1nc2ccccc2n1Cc1nnc(N2C(=O)C(Cl)C2c2cccc(O)c2)s1 (stereo not given)", "QUALITATIVE_LABEL": "active"}
{"COMPOUND": "Cc1cccc(/C=N/c2nnc(Cn3c(C)nc4ccccc43)s2)c1", "QUALITATIVE_LABEL": "inactive"}
{"COMPOUND": "Cc1nc2ccccc2n1Cc1nnc(N2C(=O)C(Cl)C2c2ccccc2)s1 (stereo not given)", "QUALITATIVE_LABEL": "active"}
{"COMPOUND": "Cc1nc2ccccc2n1Cc1nnc(/N=C/c2ccccc2O)s1", "QUALITATIVE_LABEL": "active"}
{"COMPOUND": "Cc1nc2ccccc2n1Cc1nnc(/N=C/c2cccc(O)c2)s1", "QUALITATIVE_LABEL": "inactive"}
{"COMPOUND": "Cc1nc2ccccc2n1Cc1nnc(/N=C/c2ccccc2Cl)s1", "QUALITATIVE_LABEL": "active"}
{"COMPOUND": "Cc1nc2ccccc2n1Cc1nnc(/N=C/c2ccc(O)cc2)s1", "QUALITATIVE_LABEL": "active"}
{"COMPOUND": "COc1ccccc1/C=N/c1nnc(Cn2c(C)nc3ccccc32)s1", "QUALITATIVE_LABEL": "inactive"}
{"COMPOUND": "Cc1nc2ccccc2n1Cc1nnc(N2C(=O)C(Cl)C2c2ccccc2O)s1 (stereo not given)", "QUALITATIVE_LABEL": "active"}
{"COMPOUND": "COc1ccc(/C=N/c2nnc(Cn3c(C)nc4ccccc43)s2)cc1", "QUALITATIVE_LABEL": "active"}
{"COMPOUND": "CC1(C)S[C@@H]2[C@H](NC(=O)[C@H](N)c3ccccc3)C(=O)N2[C@H]1C(=O)O", "QUALITATIVE_LABEL": "active"}
{"COMPOUND": "COc1ccccc1C1C(Cl)C(=O)N1c1nnc(Cn2c(C)nc3ccccc32)s1 (stereo not given)", "QUALITATIVE_LABEL": "inactive"}
{"COMPOUND": "Cc1ccccc1C1C(Cl)C(=O)N1c1nnc(Cn2c(C)nc3ccccc32)s1 (stereo not given)", "QUALITATIVE_LABEL": "active"}
{"COMPOUND": "Cc1nc2ccccc2n1Cc1nnc(/N=C/c2ccccc2)s1", "QUALITATIVE_LABEL": "active"}
{"COMPOUND": "Cc1nc2ccccc2n1Cc1nnc(N2C(=O)C(Cl)C2c2ccc(Cl)cc2)s1 (stereo not given)", "QUALITATIVE_LABEL": "inactive"}
{"COMPOUND": "Cc1nc2ccccc2n1Cc1nnc(/N=C/c2ccc(Br)cc2)s1", "QUALITATIVE_LABEL": "active"}
